Let's look at some binders and their measured koff.
# experimental_target: T1, Cynomolgus macaques TSLP recombinant protein (Cynomolgus macaques, UniProt Q969D9 29-159 (human entry), limits assumed, biotinylated in the blocking assays (sites not given))
# T1 construct: also called cyTSLP; biotinylated Cynomolgus macaques TSLP protein
# T1 chain: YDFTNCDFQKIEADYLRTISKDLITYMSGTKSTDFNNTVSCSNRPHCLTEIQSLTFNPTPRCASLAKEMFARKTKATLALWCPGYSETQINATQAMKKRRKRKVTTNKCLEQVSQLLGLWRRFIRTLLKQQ
# method_description: SPR BIAcore T200, antibody captured on Protein A, cynomolgus TSLP injected
Write it as a number; the unit s⁻¹ goes unstated.

Would you please look over these solved cases?
[[record]]
binder = "Ab24 (antibody, V domains shown, Humanized; also called h39G5VHv5/h71G4VKv1; h39G5VHv5/h71G4VKv1 hIgG1) VH: QVQLVQSGAEVKKPGSSVKVSCKASGYTFTDYWMHWVRQAPGQGLEWMGIIDPSDSDTSLNQKFQGRVTLTVDTSTSTAYMELSSLRSEDTAVYYCARSLDGYYDYWGQGTLVTVSS VL: DIQMTQSPSSLSASVGDRVTITCRTSENIYSYLAWYQQKPGKAPKLLIYFAKTLTDGVPSRFSGSGSGTDFTLTISSLQPEDFATYYCQHHYGTPWTFGQGTKVEIK"
numeric_result = "2.85e-07"

[[record]]
binder = "Ab26 (antibody, V domains shown, Humanized; also called h39G5VHv10/h71G4VKv1; h39G5VHv10/h71G4VKv1 hIgG1) VH: QVQLVQSGAEVKKPGSSVKVSCKASGYTFTDYWMHWVRQAPGQGLEWMGIIDPSDSDTSLNQKFQGRVTITADTSTSTAYMELSSLRSEDTAVYYCARSLDGYYDYWGQGTLVTVSS VL: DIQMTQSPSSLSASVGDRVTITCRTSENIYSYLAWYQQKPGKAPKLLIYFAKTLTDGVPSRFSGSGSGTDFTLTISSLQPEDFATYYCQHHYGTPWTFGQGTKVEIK"
numeric_result = "3.82e-07"


[Q] Reported koff, binder Ab23 (antibody, V domains shown, Humanized; also called h39G5VHv2/h71G4VKv1; h39G5VHv2/h71G4VKv1 hIgG1) VH: QVQLVQSGAEVKKPGSSVKVSCKASGYSFISYWIHWVRQAPGQGLEWMGIIDPSDSDTSLNQKFQGRVTITADESTSTAYMELSSLRSEDTAVYYCARSLDGYYDYWGQGTLVTVSS VL: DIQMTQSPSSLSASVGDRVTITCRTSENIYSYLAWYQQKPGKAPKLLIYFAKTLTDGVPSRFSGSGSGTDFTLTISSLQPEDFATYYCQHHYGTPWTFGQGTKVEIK : ____
[A] 1.36e-08

[Q] # get_value(readout='koff', item= Ab22 (antibody, V domains shown, Humanized; also called h39G5VHv1/h71G4VKv1; h39G5VHv1/h7IG4VKv1 hIgG1) VH: QVQLVQSGAEVKKPGSSVKVSCKASGYSFISYWIHWVRQAPGQGLEWMGIIDPSDSDTSLNQKFQGRVTLTVDKSSTTAYMELSSLRSEDTAVYYCARSLDGYYDYWGQGTLVTVSS VL: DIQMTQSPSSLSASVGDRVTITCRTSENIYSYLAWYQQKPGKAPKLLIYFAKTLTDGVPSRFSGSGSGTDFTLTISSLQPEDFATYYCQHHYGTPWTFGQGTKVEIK )
[A] 6.7e-08
